# methodDescription: Pharmacokinetics after single intravenous and oral administration
# Type: in vivo, male Wistar Han rats
# appliedConditions: rat, plasma; oral 20 mg/kg, male Wistar Han rats
attributeMeasured: Tmax (h)
Express the result in h but write the number alone.

Given the entry C[C@H](C(=O)[O-])c1ccc(Nc2nc(C(F)(F)F)cs2)cc1.[Na+] [DF2755A] , report its measured Tmax.
2

---

# methodDescription: Pharmacokinetics after single intravenous and oral administration
# Assay type: in vivo, male Wistar Han rats
# appliedConditions: rat, plasma; intravenous 20 mg kg^−1, male Wistar Han rats; read-out: volume of distribution at steady state
attributeMeasured: Vd

Given the entry C[C@H](C(=O)[O-])c1ccc(Nc2nc(C(F)(F)F)cs2)cc1.[Na+] [DF2755A] , report its measured Vd.
< 1 L/kg

---

# methodDescription: Pharmacokinetics after single intravenous and oral administration
# Format: in vivo, male Wistar Han rats
# appliedConditions: rat, plasma; oral 20 mg/kg, male Wistar Han rats; read-out: maximum plasma concentration (Cmax)
attributeMeasured: Cmax (µg/mL)
Express the result in µg/mL but write the number alone.

Given the entry C[C@H](C(=O)[O-])c1ccc(Nc2nc(C(F)(F)F)cs2)cc1.[Na+] [DF2755A] , report its measured Cmax.
43.5

---

# methodDescription: Pharmacokinetics after single intravenous and oral administration
# Assay type: in vivo, male Wistar Han rats
# appliedConditions: rat, plasma, po; 20 mg/kg, male Wistar Han rats; read-out: oral absolute bioavailability (F%)
attributeMeasured: bioavailability (%)
Express the result in % but write the number alone.

Given the entry C[C@H](C(=O)[O-])c1ccc(Nc2nc(C(F)(F)F)cs2)cc1.[Na+] [DF2755A] , report its measured bioavailability.
86.2

---

# methodDescription: Pharmacokinetics after single intravenous and oral administration
# Type: in vivo, male Wistar Han rats
# appliedConditions: rat, plasma; intravenous 20 mg kg^−1, male Wistar Han rats; read-out: Plasma concentration at time zero (C0)
attributeMeasured: C0 (µg/mL)
Express the result in µg/mL but write the number alone.

Given the entry C[C@H](C(=O)[O-])c1ccc(Nc2nc(C(F)(F)F)cs2)cc1.[Na+] [DF2755A] , report its measured C0.
117

---

# methodDescription: Pharmacokinetics after single intravenous and oral administration
# Assay type: in vivo, male Wistar Han rats
# appliedConditions: rat, plasma; intravenous 20 mg kg^−1, male Wistar Han rats; read-out: t1/2,z (converted)
attributeMeasured: half-life (h)
Express the result in h but write the number alone.

Given the entry C[C@H](C(=O)[O-])c1ccc(Nc2nc(C(F)(F)F)cs2)cc1.[Na+] [DF2755A] , report its measured half-life.
8.1

---

# methodDescription: Pharmacokinetics after single intravenous and oral administration
# Type: in vivo, male Wistar Han rats
# appliedConditions: rat, plasma; oral 20 mg/kg, male Wistar Han rats; read-out: overall systemic exposure (AUC0-t (last))
attributeMeasured: AUC(0-t) (µg·h/mL)
Express the result in µg·h/mL but write the number alone.

Given the entry C[C@H](C(=O)[O-])c1ccc(Nc2nc(C(F)(F)F)cs2)cc1.[Na+] [DF2755A] , report its measured AUC(0-t).
498
